studySystem: glutathione-S-transferase (GST) tagged LXRbeta LBD (ligand binding domain) (Homo sapiens, UniProt P55055)
Construct: purchased Invitrogen pv4658.pps
Sequence (P55055 222-460 limits assumed): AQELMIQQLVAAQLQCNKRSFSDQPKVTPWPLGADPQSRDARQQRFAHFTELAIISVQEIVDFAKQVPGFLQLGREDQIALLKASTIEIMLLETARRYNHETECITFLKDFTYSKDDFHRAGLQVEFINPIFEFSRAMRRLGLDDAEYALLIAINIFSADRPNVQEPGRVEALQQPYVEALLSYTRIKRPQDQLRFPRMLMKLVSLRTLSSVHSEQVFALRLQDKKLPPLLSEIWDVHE
experiment: LanthaScreen TR-FRET Liver X Receptor Coactivator Assay, co-activator recruitment to LXRbeta LBD
Format: biochemical
conditionParameters: efficacy at max dose, in relation to reference dual agonist T0901317; read-out: LXR beta Activity @ max dose (%)
quantityKind: Emax (%)
Answer with a number only, understood to be in %.

Before answering, review these 5 worked examples.
{"columns": ["compound", "endpointUnit", "endpointResult"],
 "data": [
  ["CN(C)C(=O)c1ncc(N2CCC(CC3CCN(C(=O)C(O)(c4cccc(Cl)c4)C(F)(F)F)CC3)CC2)cc1Cl (stereo not drawn)", "%", 60],
  ["CNC(=O)c1ccc(N2CCC(CC3CCN(C(=O)[C@](O)(c4cccc(OC(F)(F)F)c4)C(F)(F)F)CC3)CC2)cc1Cl", "%", 79],
  ["CN(C)C(=O)c1ccc(N2CCC(CC3CCN(C(=O)[C@](O)(c4cccc(OC(F)(F)F)c4)C(F)(F)F)CC3)CC2)cc1Cl", "%", 58],
  ["CN(C)C(=O)c1ccc(N2CCC(CC3CN(C(=O)C(O)(c4cccc(C(F)(F)F)c4)C(F)(F)F)C3)CC2)cc1Cl (stereo not drawn)", "%", 69],
  ["COc1cc(F)cc([C@@](O)(C(=O)N2CCC(CC3CCN(c4ccc(C(=O)N(C)C)c(Cl)n4)CC3)CC2)C(F)(F)F)c1", "%", 84]
]}

// next item, Emax requested
## Task Tell me measured Emax for CN(C)C(=O)c1ncc(N2CCC(CC3CCN(C(=O)C(O)(c4cccc(F)c4)C(F)(F)F)CC3)CC2)cc1Cl (stereo not drawn) please.
## Result 80
